Where do the numbers come from? From ChEMBL document CHEMBL1156048.

Exercise: state measured pIC50 for each of the compounds provided.
target: Sodium-dependent serotonin transporter (Homo sapiens); assay: Inhibition of serotonin reuptake at human serotonin transporter expressed in HEK293 cells after 5 mins by scintillation counting
Sequence (P31645 whole entry): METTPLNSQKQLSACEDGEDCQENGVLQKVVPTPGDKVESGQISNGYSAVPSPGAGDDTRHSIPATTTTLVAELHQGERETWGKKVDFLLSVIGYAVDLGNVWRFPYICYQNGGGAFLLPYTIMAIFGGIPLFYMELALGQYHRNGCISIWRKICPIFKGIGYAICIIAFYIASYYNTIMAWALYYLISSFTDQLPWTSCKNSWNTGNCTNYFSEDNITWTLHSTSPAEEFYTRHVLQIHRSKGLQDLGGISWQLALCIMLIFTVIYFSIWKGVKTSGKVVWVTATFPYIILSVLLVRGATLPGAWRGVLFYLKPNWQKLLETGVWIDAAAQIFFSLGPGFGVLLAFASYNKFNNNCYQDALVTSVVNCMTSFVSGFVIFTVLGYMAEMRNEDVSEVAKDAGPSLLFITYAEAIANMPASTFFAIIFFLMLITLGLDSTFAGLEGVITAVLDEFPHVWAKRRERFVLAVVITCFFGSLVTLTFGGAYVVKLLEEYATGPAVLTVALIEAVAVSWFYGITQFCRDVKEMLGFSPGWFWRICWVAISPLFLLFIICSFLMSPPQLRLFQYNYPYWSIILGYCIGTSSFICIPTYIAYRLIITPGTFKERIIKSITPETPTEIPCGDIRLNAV
One number for each entry, as −log10 of the molar value.

CCC(=O)N(Cc1ccc2ccccc2c1)C1CCNCC1; 9.00

# batch: return pIC50 for each of the 2 compounds below
1. CC(C)CN(C(=O)c1ccc2ccccc2c1)[C@@H]1CCNC1
2. O=C(c1ccc2ccccc2c1)N(C1CCC1)[C@@H]1CCNC1

1. 8.30
2. 8.05

---

target: Sodium-dependent dopamine transporter (Homo sapiens, UniProt Q01959); assay: Inhibition of dopamine reuptake at human dopamine transporter expressed in HEK293 cells after 5 mins by scintillation counting
Sequence (Q01959 whole entry): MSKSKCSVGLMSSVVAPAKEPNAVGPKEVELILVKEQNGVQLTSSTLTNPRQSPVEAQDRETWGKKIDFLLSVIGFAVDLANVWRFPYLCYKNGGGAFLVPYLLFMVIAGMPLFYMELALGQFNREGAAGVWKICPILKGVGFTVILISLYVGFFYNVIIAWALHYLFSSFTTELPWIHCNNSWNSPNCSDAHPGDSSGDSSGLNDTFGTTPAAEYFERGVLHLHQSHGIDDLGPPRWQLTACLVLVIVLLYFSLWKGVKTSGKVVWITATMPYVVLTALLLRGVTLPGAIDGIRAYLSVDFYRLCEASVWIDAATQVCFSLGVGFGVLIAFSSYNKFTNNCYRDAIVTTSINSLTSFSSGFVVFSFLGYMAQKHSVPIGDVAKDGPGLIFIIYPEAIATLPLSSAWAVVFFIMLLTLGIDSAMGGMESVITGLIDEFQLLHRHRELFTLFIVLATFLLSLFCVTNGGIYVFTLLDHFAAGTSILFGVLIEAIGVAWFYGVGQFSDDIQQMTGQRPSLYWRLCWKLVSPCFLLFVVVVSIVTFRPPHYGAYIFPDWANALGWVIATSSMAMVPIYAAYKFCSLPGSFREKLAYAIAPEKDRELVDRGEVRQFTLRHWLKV
Kindly state pIC50 for each of the entries shown.
Answers are plain numbers, as −log10 of the molar value.

CCC(=O)N(Cc1ccc2ccccc2c1)C1CCNCC1; 6.47

We now examine a further molecule.
Would you mind telling me what pIC50 value was observed for `CCC(=O)N(Cc1ccc2ccccc2c1)[C@@H]1CCNC1` ?
6.58

---

Assignment: determine reported pIC50 for the given compounds.
molecular target: Sodium-dependent noradrenaline transporter (Homo sapiens); assay: Inhibition of noradrenaline reuptake at human noradrenaline transporter expressed in HEK293 cells after 15 mins by scintillation counting
Sequence (P23975 whole entry): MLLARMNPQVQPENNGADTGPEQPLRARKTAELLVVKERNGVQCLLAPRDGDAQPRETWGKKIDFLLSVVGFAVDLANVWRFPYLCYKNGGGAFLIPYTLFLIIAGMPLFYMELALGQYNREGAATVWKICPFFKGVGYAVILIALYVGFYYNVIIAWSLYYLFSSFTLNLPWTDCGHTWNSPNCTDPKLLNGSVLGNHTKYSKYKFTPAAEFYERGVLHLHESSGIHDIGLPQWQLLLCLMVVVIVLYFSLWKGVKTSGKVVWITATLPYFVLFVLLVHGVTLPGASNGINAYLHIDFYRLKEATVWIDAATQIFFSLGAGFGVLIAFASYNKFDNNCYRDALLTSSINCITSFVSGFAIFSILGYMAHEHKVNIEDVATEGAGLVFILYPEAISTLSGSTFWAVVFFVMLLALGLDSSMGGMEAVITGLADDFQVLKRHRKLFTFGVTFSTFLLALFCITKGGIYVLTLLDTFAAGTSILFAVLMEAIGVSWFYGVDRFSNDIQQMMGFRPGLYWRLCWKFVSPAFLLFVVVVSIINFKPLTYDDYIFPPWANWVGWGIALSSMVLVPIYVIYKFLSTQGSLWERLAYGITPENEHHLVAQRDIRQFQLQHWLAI
One number for each entry, as −log10 of the molar value.

c1cnc(N(Cc2ccc3ccccc3c2)C2CCNCC2)nc1; 5.92
CCC(=O)N(Cc1ccc2ccccc2c1)C1CCNCC1; 5.89
c1ccc2cc(COC3CCNCC3)ccc2c1; 5.85

Attention now shifts to the item below.
Which measured pIC50 value corresponds to `CCN(C(=O)c1ccc(Cl)c(Cl)c1C)[C@@H]1CCNC1` ?
4.76
